tested on: Enterobacterales; assay: MIC, broth microdilution, CDC/FDA Antibiotic Resistance Isolate Bank (Example 7, Tables 8, 11, 12); type: cell-based; details: 154 strains of Enterobacterales; read-out: MIC50
Form field: MIC50 (one value per entry).
Just the number in µg/mL, nothing appended.

Worked cases, MIC50 given:
CO/N=C(\C(=O)N[C@@H]1C(=O)N2C(C(=O)[O-])=C(C[n+]3ccn4ncccc43)CS[C@H]12)c1nsc(N)n1 [Cefozopran, cefozopran] = 64
NCC[C@H](O)C(=O)N[C@@H]1C[C@H](N)[C@@H](O[C@H]2O[C@H](CN)[C@@H](O)[C@H](O)[C@H]2O)[C@H](O)[C@H]1O[C@H]1O[C@H](CO)[C@@H](O)[C@H](N)[C@H]1O [Amikacin, amikacin] = 4
CC(C)(O/N=C(\C(=O)N[C@@H]1C(=O)N2C(C(=O)[O-])=C(C[N+]3(CCNC(=O)c4ccc(O)c(O)c4Cl)CCCC3)CS[C@H]12)c1csc(N)n1)C(=O)O [Cefiderocol, cefiderocol] = 0.5

Ask: Provide the reported MIC50 (system: Enterobacterales) for CN(C)c1cc(NC(=O)CNC(C)(C)C)c(O)c2c1C[C@H]1C[C@H]3[C@H](N(C)C)C(O)=C(C(N)=O)C(=O)[C@@]3(O)C(O)=C1C2=O [Tigecycline, tigecycline]
Reply: 0.5

The measured values listed here are drawn from patent EP4635500A1.
